The reported numbers originate from the supplement of paper PMC10567573.

B1: TMEM106C (parent)
chain: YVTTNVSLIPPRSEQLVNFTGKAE

- Variants of: B1
- RUN_DESCRIPTION: protein stability index of a GFP-peptide fusion (GPS, HEK-293T) (PSI 1-6); higher = more stable;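 note: lentivirally expressed fusions sorted by FACS into six bins by GFP to DsRed ratio, PSI derived from sequencing read proportions per bin multiplied by bin number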
- RECORDED_CONDITIONS: c terminus: a fixed tail appended
MEASURED_PROPERTY: protein stability index
Answer as a number with no unit attached.

Solved cases below.
L16W: 2.26
T4M: 2.59

### Prompt Using the record for L16D , report its protein stability index.
### Response 2.05
